solubility (mole fraction) values, listed per item
Settings: in methanol, 288.15 K
Reply with just the number.

[
  {
    "COMPOUND STRUCTURE": "NNC(=O)c1ccccc1O",
    "solubility (mole fraction)": 0.015
  }
]

Continue with the next compound.
Exercise: solubility (mole fraction) for NNC(=O)c1ccccc1 ?
Key: 0.0425

Sourced from BigSolDB 2.1
